// provenance: ChEMBL document CHEMBL1136787

target: Human immunodeficiency virus type 1 protease (Human immunodeficiency virus 1); experiment: Inhibitory activity against HIV-1 protease was determined
OBSERVABLE: pIC50
One number for each entry, as −log10 of the molar value.

CC(C)C[C@@]1(C2=C(O)[C@](Cc3ccccc3)(C[C@H](O)[C@H](Cc3ccccc3)NC(=O)OC(C)(C)C)N=C2)N=CC([C@@H](Cc2ccccc2)C(N)=O)=C1O : 8.00

// next entry
Consider the molecule shown here: CC(C)C[C@@]1(C2=C(O)[C@](Cc3ccccc3)(C[C@H](O)[C@H](Cc3ccccc3)NC(=O)OC3CCOC3)N=C2)N=CC([C@@H](Cc2ccccc2)C(N)=O)=C1O (single isomer, unassigned; (-)) What is its recorded pIC50?
8.89
